# TEST DETAILS: ATG_GRE_CIS: Attagene CIS-FACTORIAL HepG2 Assay for human Glucocorticoid Response Elements (GRE) (AID 2282947)
# PROTOCOL CONDITIONS: HepG2 GRE cis-reporter, Attagene multiplex mRNA; actives raise or lower the signal
Calls of active or inactive are those of the source. The calls were made as follows: active = hit-call score of the fitted dose curve at least 0.9, where 1 is the maximum; inactive = score below 0.9.
Labels: true (1) (active), false (0) (inactive)

# COMPOUND, DISCRETE LABEL
records = [
    ("CCCCCCCC(=O)OCCCCCC", "false (0)"),
    ("CCN(CCC#N)c1ccc(N=Nc2ccc([N+](=O)[O-])cc2)cc1", "false (0)"),
    ("CC1(C)O[C@@H]2C[C@H]3[C@@H]4CCC5=CC(=O)C=C[C@]5(C)[C@@]4(F)[C@@H](O)C[C@]3(C)[C@]2(C(=O)CO)O1", "true (1)"),
    ("Cc1c(OCC(F)(F)F)ccnc1CS(=O)c1nc2ccccc2[nH]1 (configuration not stated)", "false (0)"),
    ("O=C1OC2(c3ccccc31)c1ccc(O)c(Br)c1Oc1c2ccc(O)c1Br", "false (0)"),
    ("C=CC(=C)CCCC(C)(C)OC(C)=O", "false (0)"),
    ("c1ccc2cc(Nc3ccc(Nc4ccc5ccccc5c4)cc3)ccc2c1", "false (0)"),
    ("CC(C)(N=C=O)c1cccc(C(C)(C)N=C=O)c1", "false (0)"),
    ("CCC(C)=O", "false (0)"),
    ("C=CCCC(=O)/C=C/C1C(C)=CCCC1(C)C (configuration not stated)", "false (0)"),
    ("COc1ccc(OC)c(N=Nc2c(O)ccc3ccccc23)c1", "false (0)"),
    ("Clc1cc(Cl)c(-c2c(Cl)c(Cl)cc(Cl)c2Cl)cc1Cl", "false (0)"),
]

====

# EXPERIMENTAL TARGET: Cellular tumor antigen p53 (Homo sapiens) (UniProt P04637)
# Sequence (P04637 whole entry, looked up): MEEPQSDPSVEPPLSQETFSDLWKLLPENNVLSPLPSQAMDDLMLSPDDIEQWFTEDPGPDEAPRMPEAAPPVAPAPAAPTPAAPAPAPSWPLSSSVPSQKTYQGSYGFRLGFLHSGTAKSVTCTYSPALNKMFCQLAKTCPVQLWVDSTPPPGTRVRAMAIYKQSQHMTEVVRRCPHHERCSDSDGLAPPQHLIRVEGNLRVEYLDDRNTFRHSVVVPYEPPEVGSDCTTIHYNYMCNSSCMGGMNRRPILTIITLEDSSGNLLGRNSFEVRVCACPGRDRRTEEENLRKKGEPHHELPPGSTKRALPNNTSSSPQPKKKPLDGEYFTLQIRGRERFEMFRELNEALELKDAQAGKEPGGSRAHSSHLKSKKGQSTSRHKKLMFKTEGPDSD
# TEST DETAILS: TOX21_p53_BLA_p5_ratio: Tox21 HCT-116 p53 Agonism Beta-lactamase Assay, Ratio, Phase 5 (AID 2283599)
Inconclusive results are not listed. Active and inactive are the calls of the source. The calls were made as follows: active = hit-call score of the fitted dose curve at least 0.9, where 1 is the maximum; inconclusive = response in the unintended direction; inactive = score below 0.9.
Labels: yes (1) (active), no (0) (inactive)

# MOLECULE, EXPERIMENTAL TARGET, DISCRETE LABEL
records = [
    ("CC(C)NCC(O)COc1ccc(CC(N)=O)cc1 (centres undefined)", "Cellular tumor antigen p53 (Homo sapiens) (UniProt P04637)", "no (0)"),
    ("O=C1c2ccccc2C(=O)c2c(O)ccc(O)c21", "Cellular tumor antigen p53 (Homo sapiens) (UniProt P04637)", "no (0)"),
    ("COC(=O)c1cccnc1", "Cellular tumor antigen p53 (Homo sapiens) (UniProt P04637)", "no (0)"),
    ("CCCCCCC(CO)CCCC (centres undefined)", "Cellular tumor antigen p53 (Homo sapiens) (UniProt P04637)", "no (0)"),
    ("Cc1cc(C)nc(NS(=O)(=O)c2ccc(N)cc2)n1", "Cellular tumor antigen p53 (Homo sapiens) (UniProt P04637)", "no (0)"),
    ("c1ccc2[nH]cnc2c1", "Cellular tumor antigen p53 (Homo sapiens) (UniProt P04637)", "no (0)"),
    ("CCCC[O][Al]([O]CCCC)[O]CCCC", "Cellular tumor antigen p53 (Homo sapiens) (UniProt P04637)", "no (0)"),
    ("CCCC1O[C@@H]2C[C@H]3[C@@H]4CCC5=CC(=O)C=C[C@]5(C)[C@H]4[C@@H](O)C[C@]3(C)[C@]2(C(=O)CO)O1 (some centres undefined)", "Cellular tumor antigen p53 (Homo sapiens) (UniProt P04637)", "no (0)"),
    ("CC1(C)O[C@@H]2C[C@H]3[C@@H]4CCC5=CC(=O)C=C[C@]5(C)[C@@]4(F)[C@@H](O)C[C@]3(C)[C@]2(C(=O)CO)O1", "Cellular tumor antigen p53 (Homo sapiens) (UniProt P04637)", "no (0)"),
    ("[O-]n1ccccc1=S.[O-]n1ccccc1=S.[Zn+2]", "Cellular tumor antigen p53 (Homo sapiens) (UniProt P04637)", "yes (1)"),
    ("O=C(O)CNc1ccccc1", "Cellular tumor antigen p53 (Homo sapiens) (UniProt P04637)", "no (0)"),
    ("CCCCCCCCCCCCN1CCCCCC1=O", "Cellular tumor antigen p53 (Homo sapiens) (UniProt P04637)", "no (0)"),
    ("C=Cc1ccc(C)cc1", "Cellular tumor antigen p53 (Homo sapiens) (UniProt P04637)", "no (0)"),
    ("CCCN(CCC)S(=O)(=O)c1ccc(C(=O)O)cc1", "Cellular tumor antigen p53 (Homo sapiens) (UniProt P04637)", "no (0)"),
    ("CC(=O)C(C)O (centres undefined)", "Cellular tumor antigen p53 (Homo sapiens) (UniProt P04637)", "no (0)"),
    ("Cc1[nH]c(=O)c(C#N)cc1-c1ccncc1", "Cellular tumor antigen p53 (Homo sapiens) (UniProt P04637)", "no (0)"),
    ("CN(C)C(=O)Nc1ccc(Oc2ccc(Cl)cc2)cc1", "Cellular tumor antigen p53 (Homo sapiens) (UniProt P04637)", "no (0)"),
    ("O=C(CC(=O)c1ccccc1)c1ccccc1", "Cellular tumor antigen p53 (Homo sapiens) (UniProt P04637)", "no (0)"),
    ("CC(C)CCCCCCc1ccc(OCCOCCO)cc1", "Cellular tumor antigen p53 (Homo sapiens) (UniProt P04637)", "no (0)"),
    ("COC(C)(C)CCO", "Cellular tumor antigen p53 (Homo sapiens) (UniProt P04637)", "no (0)"),
    ("CC(=O)OCCCc1ccccc1", "Cellular tumor antigen p53 (Homo sapiens) (UniProt P04637)", "no (0)"),
    ("CCO/C=C1\\N=C(c2ccccc2)OC1=O", "Cellular tumor antigen p53 (Homo sapiens) (UniProt P04637)", "no (0)"),
    ("C=C(C)C(=O)OCCOCCOCCOC(=O)C(=C)C", "Cellular tumor antigen p53 (Homo sapiens) (UniProt P04637)", "no (0)"),
    ("O=C(Nc1ccc2c(c1)Cc1ccccc1-2)C(F)(F)F", "Cellular tumor antigen p53 (Homo sapiens) (UniProt P04637)", "no (0)"),
    ("Nc1ccccc1[N+](=O)[O-]", "Cellular tumor antigen p53 (Homo sapiens) (UniProt P04637)", "no (0)"),
    ("Cc1ncc([N+](=O)[O-])n1CCO", "Cellular tumor antigen p53 (Homo sapiens) (UniProt P04637)", "no (0)"),
    ("O=c1[nH]c(=O)c2cn[nH]c2[nH]1", "Cellular tumor antigen p53 (Homo sapiens) (UniProt P04637)", "no (0)"),
    ("COC(=O)c1ccc(OC)cc1", "Cellular tumor antigen p53 (Homo sapiens) (UniProt P04637)", "no (0)"),
    ("C[Si](C)(C)O[Si](C)(C)C", "Cellular tumor antigen p53 (Homo sapiens) (UniProt P04637)", "no (0)"),
    ("CCCCC(CC)(CO)CO", "Cellular tumor antigen p53 (Homo sapiens) (UniProt P04637)", "no (0)"),
    ("CCc1ncc(C)[nH]1", "Cellular tumor antigen p53 (Homo sapiens) (UniProt P04637)", "no (0)"),
    ("CCC(Cl)C(Cl)C(Cl)CC(Cl)C(Cl)C(C)Cl (centres undefined)", "Cellular tumor antigen p53 (Homo sapiens) (UniProt P04637)", "no (0)"),
    ("Cc1ccc(S(N)(=O)=O)cc1", "Cellular tumor antigen p53 (Homo sapiens) (UniProt P04637)", "no (0)"),
    ("CCc1cc(Cc2cc(CC)cc(C(C)(C)C)c2O)c(O)c(C(C)(C)C)c1", "Cellular tumor antigen p53 (Homo sapiens) (UniProt P04637)", "yes (1)"),
    ("COCCOC(=O)c1ccccc1C(=O)OCCOC", "Cellular tumor antigen p53 (Homo sapiens) (UniProt P04637)", "no (0)"),
    ("Cc1ccc(-c2ccccc2)cc1", "Cellular tumor antigen p53 (Homo sapiens) (UniProt P04637)", "no (0)"),
    ("CSc1c(Cl)c(Cl)c(Cl)c(Cl)c1Cl", "Cellular tumor antigen p53 (Homo sapiens) (UniProt P04637)", "no (0)"),
    ("C=CC(=O)OCCC#N", "Cellular tumor antigen p53 (Homo sapiens) (UniProt P04637)", "no (0)"),
    ("N[C@@H](Cc1cc(I)c(Oc2cc(I)c(O)c(I)c2)c(I)c1)C(=O)O", "Cellular tumor antigen p53 (Homo sapiens) (UniProt P04637)", "yes (1)"),
    ("C=CC(=O)OCCCC", "Cellular tumor antigen p53 (Homo sapiens) (UniProt P04637)", "no (0)"),
    ("[Cl][Au]([Cl])[Cl]", "Cellular tumor antigen p53 (Homo sapiens) (UniProt P04637)", "no (0)"),
    ("CCCCSCCCC", "Cellular tumor antigen p53 (Homo sapiens) (UniProt P04637)", "no (0)"),
    ("CCOC(=O)C(C#N)=C(c1ccccc1)c1ccccc1", "Cellular tumor antigen p53 (Homo sapiens) (UniProt P04637)", "no (0)"),
    ("OCC#CCO", "Cellular tumor antigen p53 (Homo sapiens) (UniProt P04637)", "no (0)"),
    ("CC/C=C\\CCOC(=O)CC", "Cellular tumor antigen p53 (Homo sapiens) (UniProt P04637)", "no (0)"),
    ("CCCCCCCCCCCC(=O)OC[C@@H](O)[C@H]1OC[C@H](O)[C@H]1O", "Cellular tumor antigen p53 (Homo sapiens) (UniProt P04637)", "no (0)"),
    ("CC1C2CC(CC2C2CCCC(O)C2)C1(C)C (centres undefined)", "Cellular tumor antigen p53 (Homo sapiens) (UniProt P04637)", "no (0)"),
    ("ON=C1CCCCC1", "Cellular tumor antigen p53 (Homo sapiens) (UniProt P04637)", "no (0)"),
    ("O=C1NC2NC(=O)NC2N1 (centres undefined)", "Cellular tumor antigen p53 (Homo sapiens) (UniProt P04637)", "no (0)"),
    ("CCCCCCOC(=O)C(C)C", "Cellular tumor antigen p53 (Homo sapiens) (UniProt P04637)", "no (0)"),
    ("CC(C)(C)c1ccc(C(=O)O)cc1", "Cellular tumor antigen p53 (Homo sapiens) (UniProt P04637)", "no (0)"),
    ("CCCCCCCCN1CCCC1=O", "Cellular tumor antigen p53 (Homo sapiens) (UniProt P04637)", "no (0)"),
    ("C#CC(C)(O)CC(C)C (centres undefined)", "Cellular tumor antigen p53 (Homo sapiens) (UniProt P04637)", "no (0)"),
    ("COCCOCCOCCO", "Cellular tumor antigen p53 (Homo sapiens) (UniProt P04637)", "no (0)"),
    ("CS(C)=O", "Cellular tumor antigen p53 (Homo sapiens) (UniProt P04637)", "no (0)"),
    ("COC(CC(C)CCCC(C)(C)O)OC (centres undefined)", "Cellular tumor antigen p53 (Homo sapiens) (UniProt P04637)", "no (0)"),
    ("C=C(C)C(=O)OCC(CC)(COC(=O)C(=C)C)COC(=O)C(=C)C", "Cellular tumor antigen p53 (Homo sapiens) (UniProt P04637)", "no (0)"),
    ("O=C(O)c1cccnc1C(=O)O", "Cellular tumor antigen p53 (Homo sapiens) (UniProt P04637)", "no (0)"),
    ("O=C(O)CCCCCCCCC(=O)O", "Cellular tumor antigen p53 (Homo sapiens) (UniProt P04637)", "no (0)"),
]

These measurements were taken from PubChem BioAssay (EPA / NIEHS).
